test system: Enterococcus faecalis; assay: in vitro bacteriostatic activity, agar dilution MIC; type: cell-based; details: Enterococcus faecalis, Enterococcus faecalis 12-17; read-out: MIC
Counter-ions that a name gives are not always drawn.
Quantity Kind: MIC

Use these answered entries as a reference point.
# Molecule, Study Target, MIC
data = [
    ("C[C@H]1COc2c(N3CCN(C)CC3)c(F)cc3c(=O)c(C(=O)O)cn1c23 [levofloxacin, Levofloxacin hydrochloride]", "Enterococcus faecalis", "0.5 µg/mL"),
    ("CC1(C)S[C@@H]2[C@H](NC(=O)Cc3ccccc3)C(=O)N2[C@H]1C(=O)O [penicillin, Benzylpenicillin sodium]", "Enterococcus faecalis", "2 µg/mL"),
]

### Prompt Quick one: give measured MIC for C[C@H]1CC[C@@]2(O)C(C)(C)[C@@H]3CC[C@@]2(C)[C@H]1C3 (stereo in doubt)
### Response 128 µg/mL

### Prompt Supply recorded MIC for CC[C@H]1OC(=O)[C@H](C)[C@@H](O[C@H]2C[C@@](C)(OC)[C@@H](O)[C@H](C)O2)[C@H](C)[C@@H](O[C@@H]2O[C@H](C)C[C@H](N(C)C)[C@H]2O)[C@](C)(O)C[C@@H](C)CN(C)[C@H](C)[C@@H](O)[C@]1(C)O here.
### Response > 128 µg/mL

----------
tested on: Enterococcus faecalis; assay: in vitro bacteriostatic activity, agar dilution MIC; type: cell-based; conditions: Enterococcus faecalis, ATCC29212, Enterococcus faecalis ATCC 29212; read-out: MIC
Structures can show the parent of a compound that is named as a salt.
Quantity Kind: MIC
The answer consists of two parts: a number and, after it, its unit.

Example cases with answers are listed next.
# Compound, Quantity Kind, Obs Value
rows = [
    ("C[C@H]1CC[C@@]2(O)C(C)(C)[C@@H]3CC[C@@]2(C)[C@H]1C3 (stereo in doubt)", "MIC", "128 µg/mL"),
    ("CC[C@H]1OC(=O)[C@H](C)[C@@H](O[C@H]2C[C@@](C)(OC)[C@@H](O)[C@H](C)O2)[C@H](C)[C@@H](O[C@@H]2O[C@H](C)C[C@H](N(C)C)[C@H]2O)[C@](C)(O)C[C@@H](C)CN(C)[C@H](C)[C@@H](O)[C@]1(C)O", "MIC", "4 µg/mL"),
]

### Prompt Please list MIC recorded for the compound CC1(C)S[C@@H]2[C@H](NC(=O)Cc3ccccc3)C(=O)N2[C@H]1C(=O)O [penicillin, Benzylpenicillin sodium]
### Response 1 µg/mL

### Prompt Input C[C@H]1COc2c(N3CCN(C)CC3)c(F)cc3c(=O)c(C(=O)O)cn1c23 [levofloxacin, Levofloxacin hydrochloride] , output reported MIC.
### Response 0.25 µg/mL

----------
system: Enterococcus faecium; experiment: in vitro bacteriostatic activity, agar dilution MIC; assay type: cell-based; details: Enterococcus faecium, Enterococcus faecium 12-7; read-out: MIC
Structures can show the parent of a compound that is named as a salt.
Each entry below carries its recorded MIC.

# Molecule, Obs Value
measured = [
    ("C[C@H]1CC[C@@]2(O)C(C)(C)[C@@H]3CC[C@@]2(C)[C@H]1C3 (stereo in doubt)", "64 µg/mL"),
    ("CC[C@H]1OC(=O)[C@H](C)[C@@H](O[C@H]2C[C@@](C)(OC)[C@@H](O)[C@H](C)O2)[C@H](C)[C@@H](O[C@@H]2O[C@H](C)C[C@H](N(C)C)[C@H]2O)[C@](C)(O)C[C@@H](C)CN(C)[C@H](C)[C@@H](O)[C@]1(C)O", "> 128 µg/mL"),
]

### Prompt Answer with the recorded MIC for the molecule listed here: C[C@H]1COc2c(N3CCN(C)CC3)c(F)cc3c(=O)c(C(=O)O)cn1c23 [levofloxacin, Levofloxacin hydrochloride]
### Response 32 µg/mL

### Prompt Input CC1(C)S[C@@H]2[C@H](NC(=O)Cc3ccccc3)C(=O)N2[C@H]1C(=O)O [penicillin, Benzylpenicillin sodium] , output reported MIC.
### Response 128 µg/mL
